Reported pKi values are given for each entry in this list.
Biological target: rat liver DHFR (Rattus norvegicus, UniProt Q920D2)
Construct: from tissue; host or cells: liver of male Wistar rats; homogenate supernatant, pH 5.1 step, dialysed, partially purified
Experiment: Inhibition of rat liver DHFR (spectrophotometric assay; I50 and Ki)
Type: biochemical
Details: Table II; rat liver DHFR; 95% confidence limits; read-out: Ki
Bear in mind: pKi is minus log10 of a mol/L concentration; give just that figure.

test_smiles=CCCCOc1ccc(-c2c(N)nc(N)nc2CC)cc1[N+](=O)[O-] experimental_target="rat liver DHFR (Rattus norvegicus, UniProt Q920D2)" assay_metric=pKi test_value=10.10

Please turn your attention to the following entry.
Task: What measured pKi goes with `CCc1nc(N)nc(N)c1-c1ccc(N(CC)Cc2ccccc2)c([N+](=O)[O-])c1` ?
Output: 10.40

---

Tested on: L1210 murine leukaemia cells
Assay: In vitro cytotoxicity against L1210 cells
Type: cell-based
Settings: Mus musculus, Table IV, 72 hours, read-out: IC50 (L1210 cells)
Label Satisfied when IC50 < 40 nM; otherwise Not satisfied.

Look over these answered cases.
compound=CCc1nc(N)nc(N)c1-c1ccc(NCc2ccc(OC)cc2)c([N+](=O)[O-])c1 label_value="Not satisfied"
compound=CCc1nc(N)nc(N)c1-c1ccc(N(C)Cc2ccc(C(=O)NC)cc2)c([N+](=O)[O-])c1 label_value=Satisfied
compound="CCc1nc(N)nc(N)c1-c1ccc(N(C)Cc2ccc(C(=O)O)cc2)c([N+](=O)[O-])c1.O [Compound 20, monohydrate]" label_value=Satisfied
compound=CCc1nc(N)nc(N)c1-c1ccc(N(C)Cc2ccc(C(=O)OC)cc2)c([N+](=O)[O-])c1 label_value="Not satisfied"

API: the following record is the query input.
Task: Dear reviewer, please state whether `CCc1nc(N)nc(N)c1-c1ccc(N(C)Cc2ccc(OC)cc2)c([N+](=O)[O-])c1` has IC50 strictly beneath 40 nM.
Output: Not satisfied

---

Target: rat liver DHFR (Rattus norvegicus)
Construct: from tissue; host or cells: liver of male Wistar rats; homogenate supernatant, pH 5.1 step, dialysed, partially purified
Sequence (Q920D2 1-187): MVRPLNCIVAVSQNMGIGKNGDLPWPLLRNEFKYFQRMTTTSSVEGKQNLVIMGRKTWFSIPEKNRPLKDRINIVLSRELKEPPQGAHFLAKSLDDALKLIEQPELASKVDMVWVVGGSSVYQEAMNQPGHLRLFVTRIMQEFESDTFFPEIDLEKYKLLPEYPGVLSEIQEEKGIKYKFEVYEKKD
Experiment: Inhibition of rat liver DHFR (spectrophotometric assay; I50 and Ki)
Assay type: biochemical
Details: Table IV; read-out: Ki, rat liver dihydrofolate reductase
ASSAY_METRIC: pKi
pKi is defined as minus the log10 of a concentration measured in mol/L.

Task: Record `CCc1nc(N)nc(N)c1-c1ccc(NCc2ccc(OC)cc2)c([N+](=O)[O-])c1` : what is its pKi with rat liver DHFR (Rattus norvegicus)?
Output: 10.06

---

Tested on: L1210 murine leukaemia cells
Assay: In vitro cytotoxicity against L1210 cells
Type: cell-based
Conditions: Mus musculus, Table III, drug concentration necessary to reduce the 72 hour cell count to 50% of control, read-out: IC50, cytotoxicity against L1210 cells in vitro
Experimental: In vitro cytotoxicity studies Cells were seeded routinely every 72 hours at 10^4 cells.ml^-1 and counted as 10^6 cells.ml^-1 prior to each experiment and counts were performed following incubation (5% CO2 in air at full humidity) for 72 hours at 37° C., with the appropriate concentration of drug.
ASSAY_METRIC: IC50 (nM)
Give the number; nM is assumed, so skip it.

Task: Query (molecule): `CCCCNc1ccc(-c2c(N)nc(N)nc2CC)cc1[N+](=O)[O-]` ; field requested: IC50
Output: 200

---

Biological target: rat liver DHFR (Rattus norvegicus, UniProt Q920D2)
Construct: from tissue; host or cells: liver of male Wistar rats; homogenate supernatant, pH 5.1 step, dialysed, partially purified
Test: Inhibition of rat liver DHFR (spectrophotometric assay; I50 and Ki)
Type: biochemical
Details: Table IV; read-out: I50, rat liver dihydrofolate reductase
This listing pairs compounds with measured pIC50.
Conceptually, pIC50 converts a concentration in mol/L into minus its log10.

test_smiles=CCc1nc(N)nc(N)c1-c1ccc(NCc2ccc(OC)cc2)c([N+](=O)[O-])c1 experimental_target="rat liver DHFR (Rattus norvegicus, UniProt Q920D2)" assay_metric=pIC50 test_value=7.68

Task: For `CCOCCOC(=O)c1ccc(CN(C)c2ccc(-c3c(N)nc(N)nc3CC)cc2[N+](=O)[O-])cc1` , what is its reported pIC50?
Output: 8.82

---

Target: rat liver DHFR (Rattus norvegicus, UniProt Q920D2)
Construct: from tissue; host or cells: liver of male Wistar rats; homogenate supernatant, pH 5.1 step, dialysed, partially purified
Assay: Inhibition of rat liver DHFR (spectrophotometric assay; I50 and Ki)
Type: biochemical
Conditions: Table I; solvent A = water; tested as ethanesulphonate salt; read-out: I50, inhibition of rat liver DHFR
ASSAY_METRIC: IC50 (nM)
The reply should contain only the number, in nM.

Task: Which value of IC50 has been reported for `CCCCOc1ccc(-c2c(N)nc(N)nc2CC)cc1[N+](=O)[O-]` in the records?
Output: 60
